Molecular target: Glc(a1-6)Glc(a1-6)Glc
Assay: glycan array binding signal (z-score within array); higher = stronger binding
Settings: glycan notation: IUPAC condensed, linker removed
The sample as a whole holds a higher share of the strongest signals than the screen did.
outcome-measure: glycan array binding signal (z-score)

| binder | outcome-measure | test-result |
| --- | --- | --- |
| SSA (Sclerotinia sclerotiorum), A7XUK7 (protein) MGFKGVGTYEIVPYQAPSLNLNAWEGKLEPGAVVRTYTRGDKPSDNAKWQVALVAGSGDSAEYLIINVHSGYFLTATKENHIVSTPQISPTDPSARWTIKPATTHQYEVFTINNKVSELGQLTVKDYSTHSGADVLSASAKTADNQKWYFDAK | glycan array binding signal (z-score) | -0.343 |
